For each of the molecules below, state its TGI.
tested on: NCI-H460 lung; test: NCI tumour cell line growth inhibition, 48 h
Numbers only, in µM.

# molecule, endpointResult
records = [
    ("Cc1c(O)c2c(c(O)c1Br)C(=O)C=CC2=O", 2.74),
    ("N#C[Se]CCCNS(=O)(=O)C1CC2C=CC1C2 (stereo not given)", 1.27),
    ("COC(=O)C1=C(C(=O)OC)SC2(S1)C(C(=O)OC)=C(C(=O)OC)Sc1c2ssc1=Nc1ccc(Cl)cc1", 1.37),
    ("O=c1oc2ccc(Br)cc2c(=O)n1-c1ccc(I)cc1F", 5.57),
]

// batch mode: one TGI value per listed entry
1. C=C[C@]1(C)CCC2=C(CCC3C2(C)CCC[C@@]3(C)COC(C)=O)C1 (stereo not given in full)
2. CN(C)c1ccc(/C=C/C2=[N+](C)c3ccccc3C2(C)C)cc1

Response:
1. 32.2
2. 10.7

----------
test system: NCI-H522 lung; assay: NCI tumour cell line growth inhibition, 48 h
resultType: TGI (µM)
Give bare numbers, in µM.

Below, 6 compounds whose answers are already recorded.
# compound, system, TGI, µM
rows = [
    ("COc1ccc(Nc2cc(C)nc(NCCCNc3ccnc4cc(Cl)ccc34)n2)cc1", "NCI-H522 lung", 3.65),
    ("Cc1ccc2nc(C=Nc3ccc(Cl)cc3)cc(C)c2c1", "NCI-H522 lung", 26.6),
    ("CCN(CC)Cc1c(/C=C\\c2cc(OC)c(OC)c(OC)c2)ccc(OC)c1O", "NCI-H522 lung", 6.22),
    ("CCOC(=O)C(NC(=O)c1ccccc1)(Nc1ccc(Cl)cc1C(F)(F)F)C(F)(F)F (stereo unspecified)", "NCI-H522 lung", 7.29),
    ("COc1cc2c(cc1OCCCCOc1cc3c(cc1OC)C(=O)N1CCC[C@H]1C(=O)N3)N=C[C@@H]1CCCN1C2=O", "NCI-H522 lung", 3.24),
    ("N#C[Se]CCCNS(=O)(=O)C1CC2C=CC1C2 (stereo unspecified)", "NCI-H522 lung", 4.2),
]

Value sought for every listed compound: TGI.
1. O=c1oc2ccc(Br)cc2c(=O)n1-c1ccc(I)cc1F
2. COc1cc2c(cc1OC)C(=O)/C(=C/c1cc(OC)c(OC)c(OC)c1)C2
3. COc1cc([C@@H]2C[C@H]2c2cc(SC)n[nH]2)cc(OC)c1OC
4. Cn1cc(C2=C(c3cn(C)c4ccccc34)C(=O)NC2=O)c2ccccc21

Response:
[1.65, 51, 37.3, 2.52]

Kindly give each listed record's TGI.
1. COc1cc(-c2cc(-c3cc(OC)c(OC)c(OC)c3)nc3nc(N)[nH]c(=O)c23)ccc1Oc1ccnc2cc(Cl)ccc12
2. COc1cc(/C=C/C(=O)N2CCN(C(=O)c3cc(OC)c(OC)c(OC)c3)CC2)ccc1OCCCOc1cc2c(cc1OC)C(=O)N1CCC[C@H]1C=N2
3. O=C(NCCNCCCNC(=O)c1cc(-c2ccccc2)nc2ccccc12)c1cccc(OCc2ccccc2)c1OCc1ccccc1

Response:
1. 15.5
2. 3.25
3. 3.12

----------
system: HT29 colon; test: NCI tumour cell line growth inhibition, 48 h; in the data active = GI50 below about 0.43 µM; inactive = the rest
Outcome (select one): yes (1) (active), no (0) (inactive)

# compound, group
measured = [
    ("COc1cc(/C=C/C(=O)N2CCN(C(=O)c3cc(OC)c(OC)c(OC)c3)CC2)ccc1OCCCOc1cc2c(cc1OC)C(=O)N1CCC[C@H]1C=N2", "yes (1)"),
    ("COc1ccc(C2=NN(C(=O)c3cc(OC)c(OC)c(OC)c3)C(c3ccc(N(C)C)cc3)C2)cc1 (stereo not given)", "yes (1)"),
    ("COc1cc(C(=O)Nc2cc(OC)c3ccn(C)c3c2)cc2c1C[C@]1(C)CC[C@@H](O)C(C)(C)[C@H]1O2", "no (0)"),
    ("Clc1ccc(-c2cc(-c3ccccc3)nc(NCCNc3ccnc4cc(Cl)ccc34)n2)cc1", "no (0)"),
]

Request: Hey, what did the test say about CC(=O)[CH-]C(=O)c1ccccc1.CC(=O)[CH-]C(=O)c1ccccc1.C[C@]12CCC(=O)C=C1CC[C@@H]1C2CC[C@@]2(C)C1CC[C@@H]2[O-].C[C@]12CCC(=O)C=C1CC[C@@H]1C2CC[C@@]2(C)C1CC[C@@H]2[O-].Cl.[Ti+4] (stereo not given in full) ?
Response: no (0)

----------
system: MOLT-4 leukemia; assay: NCI tumour cell line growth inhibition, 48 h
resultType: TGI

# compound, TGI
data = [
    ("CCCCCC/C=C1\\CCC(CN2CCOCC2)C1=O (stereo not drawn)", "18.1 µM"),
    ("CCCCCCCCCCCCOC1C(CNC(=O)C2OC3OC(C)(C)OC3C2NC(=O)Nc2ccc(CC(=O)NC(Cc3ccccc3)C(=O)O)cc2)OC2OC(C)(C)OC21 (stereo not drawn)", "> 25 µM"),
    ("O=c1ssc(Cl)c1Cl", "4.9 µM"),
]

I have 2 compounds here; please give me TGI for each one.
1. O=C(O)CC(Sc1ccccc1)c1ccccc1 (stereo not drawn)
2. COc1ccccc1NC(=O)c1nc2ccc([N+](=O)[O-])cc2nc1C

Response:
1. > 100 µM
2. > 100 µM

----------
I'd appreciate it if you could supply GI50 values for the items below.
tested on: OVCAR-5 ovarian; test: NCI tumour cell line growth inhibition, 48 h

Some solved entries appear below for comparison.
# chemicalStructure, endpointResult
rows = [
    ("NC(N)=N/N=C/c1ccc(-c2ccc(-c3cc(Cl)cc(Cl)c3)s2)cc1", "1.59 µM"),
    ("Cn1cc(C2=C(c3cn(C)c4ccccc34)C(=O)NC2=O)c2ccccc21", "> 25 µM"),
    ("COc1ccc(/C=C2\\C=C(c3ccccc3)N(CCc3ccccc3)C2=O)cc1OC", "6.37 µM"),
]

Quick batch: GI50 for everything below.
1. COc1cc(/C=C2\C[C@H]3[C@@H]4CC=C5C[C@@H](O)CC[C@]5(C)[C@H]4CC[C@]3(C)[C@H]2O)ccc1OCCCn1ccnc1
2. O=c1oc2ccc(Br)cc2c(=O)n1-c1ccc(I)cc1F

Response:
7.14 µM
3.59 µM

----------
test system: MCF7 breast; assay: NCI tumour cell line growth inhibition, 48 h
resultType: log10 of TGI (log10 of the value in µM)
Short version: log10 scale, TGI, µM.

# compound, resultType, endpointResult
data = [
    ("O=C(NCCNCCCNC(=O)c1cc(-c2ccccc2)nc2ccccc12)c1cccc(OCc2ccccc2)c1OCc1ccccc1", "log10 of TGI", 0.49),
    ("CC1(C)[C@@H](OC(=O)CCC(=O)O)CC[C@]2(C)[C@H]3C(=O)C=C4[C@@H]5C[C@@](C)(C(=O)O)CC[C@]5(C)CC[C@@]4(C)[C@]3(C)CC[C@@H]12", "log10 of TGI", 2.13),
]

Dear colleague, could you please provide log10 of TGI for the compounds listed below?
1. CC(=O)N1N=C2/C(=C/c3ccc(Cl)cc3)CC(C)CC2C1c1ccc(Cl)cc1 (stereo unspecified)
2. O=C1c2ccccc2-c2c1c1ccccc1c(=O)n2CCCNCCCCNCCCN1C(=O)c2ccccc2C2C(=O)c3ccccc3C21 (stereo unspecified)
3. CCOC(=O)C(C(=S)SC)c1nn2c(=O)cc(C)nc2s1 (stereo unspecified)
4. COc1cc([C@@H]2C[C@H]2c2cc(SC)n[nH]2)cc(OC)c1OC
5. COc1ccc(/C=C2\CCC/C(=C\c3ccc(O)c(CN4CCCCC4)c3)C2=O)cc1
6. CN1CCN(Cc2ccc(NC(=O)c3cccc(C#Cc4cnc(N)c5ncccc45)c3F)cc2C(F)(F)F)CC1
7. COc1cc(/C=C/C(=O)N2CCN(C(=O)c3cc(OC)c(OC)c(OC)c3)CC2)ccc1OCCCOc1cc2c(cc1OC)C(=O)N1CCC[C@H]1C=N2

Response:
1.73
0.28
1.52
1.61
1.45
0.24
-0.20

Give log10 of TGI for each of the items listed below.
1. c1ccc2cc(C[n+]3ccn(CCCCCCCCCCn4cc[n+](Cc5ccc6ccccc6c5)c4)c3)ccc2c1
2. COc1cc(-c2[o+]c3cc(O)cc(O)c3cc2O)cc(O)c1O
3. Clc1ccc(-c2cc(-c3ccccc3)nc(NCCNc3ccnc4cc(Cl)ccc34)n2)cc1
4. COc1cc([C@@H]2c3cc4c(cc3[C@@H](Nc3ccc(C(=O)N[C@H]5CCc6cc(OC)c(OC)c(OC)c6-c6ccc(SC)c(=O)cc65)cc3)[C@H]3COC(=O)[C@H]23)OCO4)cc(OC)c1O
5. CN1C/C=C/CCOc2cccc(c2)-c2ccnc(n2)Nc2cccc(c2)C1
6. CC1=CC(=O)CC(C)(C)C1/C=C/C(C)=C/C=C/C(C)=C/C=C/C=C(C)/C=C/C=C(C)/C=C/C1=C(C)CC(O)CC1(C)C (stereo unspecified)

Response:
0.36
1.67
0.57
1.92
0.07
1.66
